Target: Voltage-gated potassium channel subunit beta-2 (Rattus norvegicus) (UniProt P62483)
Sequence (P62483 whole entry, looked up): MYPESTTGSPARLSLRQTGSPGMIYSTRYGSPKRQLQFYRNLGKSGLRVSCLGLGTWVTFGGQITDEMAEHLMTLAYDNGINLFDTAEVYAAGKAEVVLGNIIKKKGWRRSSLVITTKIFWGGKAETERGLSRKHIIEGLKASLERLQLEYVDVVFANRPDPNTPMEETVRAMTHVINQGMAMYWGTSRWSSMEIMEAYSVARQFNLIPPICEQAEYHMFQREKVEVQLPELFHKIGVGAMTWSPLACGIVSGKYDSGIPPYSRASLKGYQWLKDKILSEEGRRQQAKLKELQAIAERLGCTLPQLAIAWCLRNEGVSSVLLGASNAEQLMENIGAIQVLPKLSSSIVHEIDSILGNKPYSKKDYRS
Test: KvBeta enzyme negative modulators, primary screen, biochemical, NADPH fluorescence (AID 622);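 note: slope of raw intensity against log time taken from 70 to 1610 s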
Settings: recombinant KvBeta, 4-cyanobenzaldehyde reduction, at 10 µM, active compounds read high
Mark TRUE for reported fluorescence slope of -0.5 or greater; mark FALSE for anything smaller.

Compound | Assigned class
O=C(CNc1ccc(Oc2ccccc2)cc1)N1CCOCC1 | FALSE
Cc1nc(SCC(=O)Nc2ccc3c(c2)OCO3)c(C#N)c2c1CCCC2 | TRUE
COc1ccc(S(=O)(=O)N2CCC(C(=O)Nc3c(F)cccc3F)CC2)cc1 | TRUE
Cc1nc2ccc(S(=O)(=O)NCC(=O)N3CCc4ccccc4C3)cc2s1 | FALSE
CC(C)Cc1[nH]c(=O)c(C#N)c2c1COC(C)(C)C2 | TRUE
C=CCN=C(C)C1=C(O)CCC1=O | TRUE
COC(=O)C(NC(C)=O)(Nc1ccc(Br)cn1)C(F)(F)F (stereo unspecified) | TRUE
COc1ccc(OC)c(C2/C(=C(/O)c3ccccc3)C(=O)C(=O)N2Cc2ccco2)c1 (stereo unspecified) | FALSE
CC1(C)Cc2[nH]c(=S)c(C#N)cc2CO1 | TRUE
CCc1nnc(NC(=O)C2Cc3ccccc3CN2S(=O)(=O)c2cccs2)s1 (stereo unspecified) | TRUE
COc1ccc(C)cc1-n1nnnc1SCC(=O)Nc1cc(C)on1 | FALSE
